tested on: TK-10; assay: NCI tumour cell line growth inhibition, 48 h
Activity calls are given as the source filed them. Rule as the data show it: active = GI50 up to about 1.1 µM and inactive = higher.
// allowed return values: active, inactive

{"compound": "Cn1c2ccccc2c2[nH]c3ccccc3c(=O)c21", "assignedClass": "inactive"}
{"compound": "CCCCCC(O)C(O)CCC[C@H](O)[C@H]1CC[C@H]([C@H]2CC[C@H]([C@H](O)CCCCCCCCCCCCC3=C[C@H](C)OC3=O)O2)O1 (stereo partly specified)", "assignedClass": "inactive"}
{"compound": "Nc1nc(-c2ccccc2)c(-c2ccccc2)c(-c2nc(N)nc(-c3ccccc3)c2-c2ccccc2)n1", "assignedClass": "inactive"}
{"compound": "O=C(NC/C=C/Br)NC1CCNc2ccccc21 (stereo unspecified)", "assignedClass": "inactive"}
{"compound": "COc1cc2c(/C=C3/C(=O)Nc4ccccc43)c(Cl)[nH]c2cc1C", "assignedClass": "active"}

Query: Assay result, entry "O=P1(c2ccccc2)C(c2ccccc2)=CC=C1c1ccccc1" — outcome?
Result: inactive

Query: Fill in: this test's call for "CSc1c(C#N)c(O)nc(N)c1C(=O)Nc1ccc(C)cc1" is ___
Result: inactive

Query: Dear colleague, could you share the recorded outcome for "C[S+](C)([O-])=Nn1c(=O)n2n(c1=O)[C@H]1CC[C@@H]2C1" when you have a moment?
Result: inactive
